Source: patent US9834549B2

- test-target: human 11β-HSD1 (Homo sapiens)
- Construct: stably transfected with a construct containing the full-length gene coding for the human 11β-HSD1 enzyme; expressed in transfected cells; host or cells: HEK293 (stably transfected, HEK293/11β-HSD1)
- assay-remarks: Cellular in vitro 11β-HSD1 enzyme inhibition assay (SPA, HEK293/11β-HSD1 cells)
- Format: cell-based
- assay-setup: HEK293; potency groups; read-out: IC50 for 11β-HSD1 (HEK293)
pIC50: −log10 of the molar value.
quantity-measured: pIC50

* O=C(c1csc(-c2cn[nH]c2)c1)N1C2CCC1CC(O)(c1ccncc1Cl)C2 (centres unmarked) | ≥ 7.00
* O=C(c1csc(-c2cn[nH]c2)c1)N1C2CCC1CC(F)(c1ccccn1)C2 (centres unmarked) | ≥ 7.00
* COC1(c2ccccn2)CC2CCC(C1)N2C(=O)c1csc(-c2cn[nH]c2)c1 (centres unmarked) | ≥ 7.00
* Cc1cccnc1C1(C#N)CC2CCC(C1)N2C(=O)c1csc(-c2cn[nH]c2)c1 (centres unmarked) | ≥ 7.00
* O=C(c1csc(-c2cn[nH]c2)c1)N1CCC(O)(c2ccncc2F)CC1 | 6.30 to 7.00

###

The entries below come with measured pIC50 values attached.
- test-target: human 11β-HSD1 (Homo sapiens, UniProt P28845)
- Construct: stably transfected with a construct containing the full-length gene coding for the human 11β-HSD1 enzyme; expressed in transfected cells; host or cells: HEK293 (stably transfected, HEK293/11β-HSD1)
- Sequence (P28845 whole entry): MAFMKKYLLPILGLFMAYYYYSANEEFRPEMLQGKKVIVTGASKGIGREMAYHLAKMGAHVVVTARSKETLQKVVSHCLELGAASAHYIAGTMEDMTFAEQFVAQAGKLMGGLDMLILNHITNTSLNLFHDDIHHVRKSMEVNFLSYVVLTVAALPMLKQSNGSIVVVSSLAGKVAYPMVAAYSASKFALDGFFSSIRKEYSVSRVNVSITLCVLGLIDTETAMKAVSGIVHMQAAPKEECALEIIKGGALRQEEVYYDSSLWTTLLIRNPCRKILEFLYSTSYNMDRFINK
- assay-remarks: Cellular in vitro 11β-HSD1 enzyme inhibition assay (SPA, HEK293/11β-HSD1 cells)
- Assay type: cell-based
- assay-setup: HEK293; potency groups; read-out: IC50 for 11β-HSD1 (HEK293)
pIC50: −log10 of the molar value.
quantity-measured: pIC50

- Cc1cccnc1C1(F)CC2CCC(C1)N2C(=O)c1csc(-c2cn[nH]c2)c1 (single isomer, unassigned): ≥ 7.00
- O=C(c1csc(-c2cn[nH]c2)c1)N1C2CCC1CC(F)(c1ncccc1F)C2 (centres unmarked): ≥ 7.00
- O=C(c1csc(-c2cn[nH]c2)c1)N1CCC(F)(c2ncccc2Cl)CC1: 6.30 to 7.00
- O=C(c1csc(-c2cn[nH]c2)c1)N1C2CCC1CC(F)(c1cccnn1)C2 (centres unmarked): ≥ 7.00
- COc1cccnc1C1(O)CC2CCC(C1)N2C(=O)c1csc(-c2cn[nH]c2)c1 (centres unmarked): ≥ 7.00
- O=C(c1csc(-c2cn[nH]c2)c1)N1C2CCC1CC(O)(c1ncccc1C(F)(F)F)C2 (centres unmarked): ≥ 7.00
- CCc1ccc(Cl)c(C2(O)CCN(C(=O)c3csc(-c4cn[nH]c4)c3)CC2)n1: 6.30 to 7.00
- CN(C)c1cccc(C2(O)CC3CCC(C2)N3C(=O)c2csc(-c3cn[nH]c3)c2)n1 (centres unmarked): ≥ 7.00

###

- assay-remarks: Oral exposure and tissue distribution in rats
- Format: in vivo, male Sprague Dawley rats
- assay-setup: rat, oral 10 mg/kg
quantity-measured: Liver Cmax (maximum liver concentration)

• O=C(c1csc(-c2cn[nH]c2)c1)N1C2CCC1CC(O)(c1ccccn1)C2 (stereo not drawn) = ++ (3001-5000 ++)
• O=C(c1csc(-c2cn[nH]c2)c1)N1C2CCC1CC(O)(c1cnccn1)C2 (stereo not drawn) = ++ (3001-5000 ++)
• O=C(c1csc(-c2cn[nH]c2)c1)N1C2CCC1CC(O)(c1cscn1)C2 (stereo not drawn) = ++ (3001-5000 ++)
• O=C(c1csc(-c2cn[nH]c2)c1)N1C2CCC1CC(O)(c1ncccn1)C2 (stereo not drawn) = +++ (>5001 +++)
• O=C(c1csc(-c2cn[nH]c2)c1)N1CCC(O)(c2ncccc2Cl)CC1 = +++ (>5001 +++)
• O=C(c1csc(-c2cn[nH]c2)c1)N1C2CCC1CC(O)(c1nccs1)C2 (stereo not drawn) = ++ (3001-5000 ++)

###

- test-target: human 11β-HSD1 (Homo sapiens, UniProt P28845)
- Construct: stably transfected with a construct containing the full-length gene coding for the human 11β-HSD1 enzyme; expressed in transfected cells; host or cells: HEK293 (stably transfected, HEK293/11β-HSD1)
- assay-remarks: Cellular in vitro 11β-HSD1 enzyme inhibition assay (SPA, HEK293/11β-HSD1 cells)
- Format: cell-based
- assay-setup: HEK293 cells; value marked * in brackets; read-out: IC50 for 11β-HSD1 (HEK293), (*) average of at least two individual experiments
pIC50: −log10 of the molar value.
The entries below come with measured pIC50 values attached.
quantity-measured: pIC50

- O=C(c1csc(-c2cn[nH]c2)c1)N1CCC(O)(c2ncccc2Cl)CC1: 7.39
- O=C(c1csc(-c2cn[nH]c2)c1)N1C2CCC1CC(O)(c1nccs1)C2 (centres unmarked): 7.51
- O=C(c1csc(-c2cn[nH]c2)c1)N1C2CCC1CC(O)(c1ncccn1)C2 (centres unmarked): 7.38
- O=C(c1csc(-c2cn[nH]c2)c1)N1C2CCC1CC(O)(c1ccccn1)C2 (centres unmarked): 7.55
- O=C(c1csc(-c2cn[nH]c2)c1)N1C2CCC1CC(F)(c1cccnn1)C2 (centres unmarked): 7.30

###

- assay-remarks: In vitro human liver microsomal stability assay
- Format: in vitro ADME
- assay-setup: human liver microsomes
quantity-measured: % Parent Remaining at 30 min

• N#CC1(c2nccs2)CC2CCC(C1)N2C(=O)c1csc(-c2cn[nH]c2)c1 (stereo not shown) [XX-35] = ++ (31-60% ++)
• O=C(c1csc(-c2cn[nH]c2)c1)N1CCC(O)(c2ncccc2Cl)CC1 [YY-02] = ++ (31-60% ++)
• O=C(c1csc(-c2cn[nH]c2)c1)N1C2CCC1CC(O)(c1ncccn1)C2 (stereo not shown) [XX-20] = +++ (61-100% +++)
• N#CC1(c2ccccn2)CC2CCC(C1)N2C(=O)c1csc(-c2cn[nH]c2)c1 (stereo not shown) [XX-18] = +++ (61-100% +++)
